From: patent US20180339057A1

- subjectOfTest: T1, human MIC-1 receptor (hGFRAL, GDNF family receptor alpha like), full length (human, UniProt Q6UXV0 19-394)
- T1 sequence (looked up): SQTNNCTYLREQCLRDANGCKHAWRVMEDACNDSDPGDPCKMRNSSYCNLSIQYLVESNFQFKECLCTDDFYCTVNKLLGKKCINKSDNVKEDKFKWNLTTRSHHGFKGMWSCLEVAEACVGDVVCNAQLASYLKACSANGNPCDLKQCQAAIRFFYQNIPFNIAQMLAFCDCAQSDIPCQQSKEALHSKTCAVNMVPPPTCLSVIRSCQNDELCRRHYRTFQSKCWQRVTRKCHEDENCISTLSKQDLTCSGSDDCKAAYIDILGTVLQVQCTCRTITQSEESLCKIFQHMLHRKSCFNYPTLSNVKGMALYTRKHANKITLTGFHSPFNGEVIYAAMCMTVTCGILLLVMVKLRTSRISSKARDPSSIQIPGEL
- assayDetails: cell-based or functional assay
List of Luciferase + 0.1% HSA NNDK EC50 (pM) values.

[
  {
    "binder": "Compound 16 (ligand, alpha-amino group of the N-terminal Ser-32 (residue 1 of SEQ ID NO: 312): N-[4-[[[2-[2-[2-[[2-[2-[2-[[(4S)-4-carboxy-4-(17-carboxyheptadecanoylamino)butanoyl]amino]ethoxy]ethoxy]acetyl]amino]ethoxy]ethoxy]acetyl]amino]methyl]phenyl]methyl (protractor of Example 10.1), homodimer, two protractors per dimer; also called dialkylated) SEPATSGSETPGTSESATPESGPGTSTEPSEGARGDHCPLGPGRCCRLHTVRASLEDLGWADWVLSPREVQVTMCIGACPSQFRAANLHAQIKTSLHRLRPDTVPAPCCVPASYNPLVLIQRTDTGVSLQTYDDLLARDCHCI",
    "Luciferase + 0.1% HSA NNDK EC50 (pM)": "51 pM"
  },
  {
    "binder": "Compound 07 (ligand, Cys-15 (residue 18 of SEQ ID NO: 292): S{Beta}-[2-[2-[[2-[2-[2-[[2-[2-[2-[[(4S)-4-carboxy-4-(17-carboxyheptadecanoylamino)butanoyl]amino]ethoxy]ethoxy]acetyl]amino]ethoxy]ethoxy]acetyl]amino]ethylamino]-2-oxoethyl]Cys (protractor of Example 10.4), homodimer, two protractors per dimer) SEPATSGSETPGTSESACPESGPGTSTEPSEGARGDHCPLGPGRCCRLHTVRASLEDLGWADWVLSPREVQVTMCIGACPSQFRAANLHAQIKTSLHRLKPDTVPAPCCVPASYNPLVLIQKTDTGVSLQTYDDLLAKDCHCI",
    "Luciferase + 0.1% HSA NNDK EC50 (pM)": "198 pM"
  },
  {
    "binder": "SEPATSGSETPGTSESATPESGPGTSTEPSEG-MIC-1-des-N3 (M57L, M86L) (ligand, homodimer; no protractor) SEPATSGSETPGTSESATPESGPGTSTEPSEGARGDHCPLGPGRCCRLHTVRASLEDLGWADWVLSPREVQVTMCIGACPSQFRAANLHAQIKTSLHRLKPDTVPAPCCVPASYNPLVLIQKTDTGVSLQTYDDLLAKDCHCI",
    "Luciferase + 0.1% HSA NNDK EC50 (pM)": "64 pM"
  },
  {
    "binder": "SEPATSCSETPGTSESATPESGPGTSTEPSEG-MIC-1, des-N3, M57L, M86L (Cys mutation G(-26)C) (ligand, homodimer; no protractor) SEPATSCSETPGTSESATPESGPGTSTEPSEGARGDHCPLGPGRCCRLHTVRASLEDLGWADWVLSPREVQVTMCIGACPSQFRAANLHAQIKTSLHRLKPDTVPAPCCVPASYNPLVLIQKTDTGVSLQTYDDLLAKDCHCI",
    "Luciferase + 0.1% HSA NNDK EC50 (pM)": "26 pM"
  },
  {
    "binder": "SEPATSGCETPGTSESATPESGPGTSTEPSEG-MIC-1, des-N3, M57L, M86L (Cys mutation S(-25)C) (ligand, homodimer; no protractor) SEPATSGCETPGTSESATPESGPGTSTEPSEGARGDHCPLGPGRCCRLHTVRASLEDLGWADWVLSPREVQVTMCIGACPSQFRAANLHAQIKTSLHRLKPDTVPAPCCVPASYNPLVLIQKTDTGVSLQTYDDLLAKDCHCI",
    "Luciferase + 0.1% HSA NNDK EC50 (pM)": "34 pM"
  },
  {
    "binder": "Compound 05 (ligand, Cys-26 (residue 7 of SEQ ID NO: 289): S{Beta}-[2-[2-[[2-[2-[2-[[2-[2-[2-[[(4S)-4-carboxy-4-(17-carboxyheptadecanoylamino)butanoyl]amino]ethoxy]ethoxy]acetyl]amino]ethoxy]ethoxy]acetyl]amino]ethylamino]-2-oxoethyl]Cys (protractor of Example 10.4), homodimer, two protractors per dimer) SEPATSCSETPGTSESATPESGPGTSTEPSEGARGDHCPLGPGRCCRLHTVRASLEDLGWADWVLSPREVQVTMCIGACPSQFRAANLHAQIKTSLHRLKPDTVPAPCCVPASYNPLVLIQKTDTGVSLQTYDDLLAKDCHCI",
    "Luciferase + 0.1% HSA NNDK EC50 (pM)": "63 pM"
  },
  {
    "binder": "Compound 10 (ligand, alpha-amino group of the N-terminal Ser-32 (residue 1 of SEQ ID NO: 164): N-[4-[[[2-[2-[2-[[2-[2-[2-[[(4S)-4-carboxy-4-(17-carboxyheptadecanoylamino)butanoyl]amino]ethoxy]ethoxy]acetyl]amino]ethoxy]ethoxy]acetyl]amino]methyl]phenyl]methyl (protractor of Example 10.1), homodimer with one protractor on each of the two N-terminal extensions; also called Formula A (C18)) SEPATSGSETPGTSESATPESGPGTSTEPSEGARGDHCPLGPGRCCRLHTVRASLEDLGWADWVLSPREVQVTMCIGACPSQFRAANLHAQIKTSLHRLKPDTVPAPCCVPASYNPLVLIQKTDTGVSLQTYDDLLAKDCHCI",
    "Luciferase + 0.1% HSA NNDK EC50 (pM)": "146 pM"
  },
  {
    "binder": "SEPATSGSETPGTSESATPESGPGTSTEPSEG-MIC-1, del-N3, M57L, M86L, K69R, K107R, K91R (ligand, homodimer; no protractor) SEPATSGSETPGTSESATPESGPGTSTEPSEGARGDHCPLGPGRCCRLHTVRASLEDLGWADWVLSPREVQVTMCIGACPSQFRAANLHAQIKTSLHRLRPDTVPAPCCVPASYNPLVLIQRTDTGVSLQTYDDLLARDCHCI",
    "Luciferase + 0.1% HSA NNDK EC50 (pM)": "35 pM"
  },
  {
    "binder": "Compound 15 (ligand, alpha-amino group of the N-terminal Ser-32 (residue 1 of SEQ ID NO: 312): N-[4-[[[2-[2-[2-[[2-[2-[2-[[(4S)-4-carboxy-4-(17-carboxyheptadecanoylamino)butanoyl]amino]ethoxy]ethoxy]acetyl]amino]ethoxy]ethoxy]acetyl]amino]methyl]phenyl]methyl (protractor of Example 10.1), also called monoalkylated) chain 1: SEPATSGSETPGTSESATPESGPGTSTEPSEGARGDHCPLGPGRCCRLHTVRASLEDLGWADWVLSPREVQVTMCIGACPSQFRAANLHAQIKTSLHRLRPDTVPAPCCVPASYNPLVLIQRTDTGVSLQTYDDLLARDCHCI chain 2: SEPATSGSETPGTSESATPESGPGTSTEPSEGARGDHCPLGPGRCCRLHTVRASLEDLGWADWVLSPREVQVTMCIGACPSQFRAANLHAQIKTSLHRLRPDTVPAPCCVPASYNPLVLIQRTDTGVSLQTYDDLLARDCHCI",
    "Luciferase + 0.1% HSA NNDK EC50 (pM)": "39 pM"
  }
]
